STUDY_SYSTEM: Type-1 angiotensin II receptor B (Rattus norvegicus, UniProt P29089)
Sequence (P29089 whole entry): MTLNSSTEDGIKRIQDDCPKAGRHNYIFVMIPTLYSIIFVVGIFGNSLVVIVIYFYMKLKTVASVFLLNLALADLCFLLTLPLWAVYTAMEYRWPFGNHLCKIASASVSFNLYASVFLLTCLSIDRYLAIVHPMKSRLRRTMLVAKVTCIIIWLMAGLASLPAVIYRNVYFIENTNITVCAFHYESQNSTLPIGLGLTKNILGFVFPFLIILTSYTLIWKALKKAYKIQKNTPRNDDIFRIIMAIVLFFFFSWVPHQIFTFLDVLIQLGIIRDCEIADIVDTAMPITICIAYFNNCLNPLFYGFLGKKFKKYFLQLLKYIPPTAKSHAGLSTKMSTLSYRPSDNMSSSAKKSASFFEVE
EXPERIMENTAL_PROTOCOL: Inhibition of [125I]angiotensin-II binding to the angiotensin II receptor type 1 in rat uterine membranes
MEASURED_METRIC: IC50 (nM)

Solved entries (count: 2):
MOLECULE	IC50 (nM)
CCCCc1nn(CC(O)c2cc(OC)ccc2OC)c(=O)n1Cc1ccc(-c2ccccc2-c2nn[nH]n2)cc1 (stereo not given)	22
CCCCc1nn(CCCC)c(=O)n1Cc1ccc(-c2ccccc2-c2nnn[nH]2)cc1	5.1

a: CCCCc1nn(CC(O)c2ccccc2)c(=O)n1Cc1ccc(-c2ccccc2-c2nn[nH]n2)cc1 (stereo not given)
b: CCCCc1nn(Cc2ccccc2)c(=O)n1Cc1ccc(-c2ccccc2-c2nn[nH]n2)cc1
c: CCCCc1nn(CC(=O)OCC)c(=O)n1Cc1ccc(-c2ccccc2-c2nn[nH]n2)cc1
Enquiry: I would appreciate it if you could sort these 3 molecules by IC50, starting from the smallest number. Rank them, then answer with their labels in that order.
Return: a, c, b
